tested on: HMLE_sh_eGFP viability, CellTiter-Glo luminescence, 72 h; assay: cytotoxicity in HMLE control line with eGFP shRNA, dose response, counter-screen for HMLE_sh_ECad selective toxicity project, cell-based, HMLE_sh_eGFP, luminescence (AID 463074);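 note: counterscreen control line to flag general toxicity for the HMLE_sh_ECad screen; potency for loss of viability as luminescence drops below DMSO wells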
Activity calls are given as the source filed them.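 Rule for the calls: active = AC50 no more than tenfold above the top dose tested, or full inhibition at every dose with a flat fit (cut at about 19 µM in these data); inconclusive = flat curve fit with inhibition between 30% and 70%, or poor fit; inactive = AC50 more than tenfold above the top dose tested.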
// one of t (active), f (inactive), no free text

Asked: Hi, do you know how Cn1c(-c2ccsc2)c(-c2cccs2)c2cc(-c3ccc4[nH]ccc4c3)ccc21 came out in this test?
Given back: f

Asked: Likewise for Nc1ccccc1N=Cc1ccc(-c2cccc(Cl)c2)o1 ?
Given back: t

Asked: Likewise for Cc1ccc(NC(=O)c2nc(S(=O)(=O)Cc3ccccc3)ncc2Cl)cc1 ?
Given back: t

Asked: Likewise for Cc1cc(C(=O)Nc2nc3c(s2)CCCC3)cs1 ?
Given back: f

Asked: Likewise for N#CC1=C(SCC(=O)c2ccc(Br)cc2)NC2=C(C(=O)CCC2)C1c1ccco1 (stereo not drawn) ?
Given back: t

Asked: Likewise for CCCOc1ccc(-c2nc(N3CCN(CC)CC3)c3ccccc3n2)cc1 ?
Given back: t

Asked: Likewise for S=c1[nH]nc(-c2cc(-c3ccccc3)n[nH]2)n1/N=C/C(Br)=C/c1ccccc1 ?
Given back: t

Asked: Likewise for S=C(NCCC(c1ccccc1)c1ccccc1)Nc1cccc(Cl)c1 ?
Given back: t

Asked: Likewise for COc1ccc2c(c1)[nH]c1c(=O)n(/N=C/C3C(C)C=C(C)CC3C)c(=O)[nH]c12 (stereo not drawn) ?
Given back: f

Asked: Likewise for Cc1ccc(/C=C/C(=O)N2CC(C)CC(C)C2)o1 (stereo not drawn) ?
Given back: t

Asked: Likewise for Oc1ccccc1/C=N/NP(=S)(c1ccccc1)c1ccccc1 ?
Given back: t

Asked: Likewise for COC(=O)C1=C(C)N(Cc2ccccc2)C(=NCc2ccccc2)N[C@H]1c1cccc(C(F)(F)F)c1 ?
Given back: t

Asked: Likewise for O=C(Nc1ncc(Cc2cccc([N+](=O)[O-])c2)s1)c1ccco1 ?
Given back: t

Asked: Likewise for COc1ccc(C)cc1N1C(=N)/C(=C2/Nc3ccccc3S2)C(c2ccccc2)C1=O (stereo not drawn) ?
Given back: t

Asked: Likewise for Cc1ccccc1N=C(NOCc1ccc(Cl)cc1Cl)c1nonc1N ?
Given back: t

Asked: Likewise for Cc1nn(CCc2nn[nH]n2)c2nc(-c3ccc(C4CCCCC4)cc3)cc(C(F)(F)F)c12 ?
Given back: t

Asked: Likewise for CCN1CCN(c2cc(C(C)(C)C)nc3c(-c4ccccc4)c(C)nn23)CC1 ?
Given back: t

Asked: Likewise for Cc1c(C(=O)Nc2ccc(-c3nnc4n3CCCCC4)cc2)oc2c1ccc1ccccc12 ?
Given back: t

Asked: Likewise for CC1CCN(c2nc(-c3cccnc3)nc3scc(-c4ccccc4)c23)CC1 ?
Given back: t

Asked: Likewise for O=C(NC(c1ccc(Cl)cc1)c1c(O)ccc2ccccc12)c1ccccc1 (stereo not drawn) ?
Given back: t

Asked: Likewise for Oc1ccc(C[C@@H]2CNC(=S)N2CCCCC2CCCCC2)cc1 ?
Given back: t

Asked: Likewise for C/C(N=Nc1nc2ccccc2s1)=N\Nc1ccccc1O ?
Given back: t

Asked: Likewise for CC(NCC(O)COCCC12CC3CC(CC(C3)C1)C2)c1ccccc1 (stereo not drawn) ?
Given back: t

Asked: Likewise for C=CCn1c(SCc2c(C)noc2C)nc2ccccc2c1=O ?
Given back: t

Asked: Likewise for O=C(NCc1nc(-c2ccc(C(F)(F)F)cc2)no1)Nc1ccc(OC(F)(F)F)cc1 ?
Given back: t

Asked: Likewise for Cc1[nH]c2ccccc2c1/C=N/NC(=O)C1CC1(c1ccccc1)c1ccccc1 (stereo not drawn) ?
Given back: t

Asked: Likewise for CCOc1cc(CNCCO)cc(Br)c1OCc1ccc(Cl)cc1Cl ?
Given back: t

Asked: Likewise for CCCc1cc(=O)[nH]c(SCC(=O)Nc2sc(C(N)=O)c(C)c2C(=O)OCCOC)n1 ?
Given back: t

Asked: Likewise for CCCOc1ccc(C(=O)C(CN2CCCC2)c2ccccc2)cc1 (stereo not drawn) ?
Given back: t

Asked: Likewise for CC1(C)C=C2[C@H]3CC[C@@H]4[C@@]5(C)CCC(=O)C(C)(C)[C@@H]5CC[C@@]4(C)[C@]3(C)CC[C@@]2(C(=O)O)CC1 ?
Given back: t

Asked: Likewise for CN(CC(=O)Nc1ccccc1Cl)C(=O)c1cccc(-n2cccc2)c1 ?
Given back: f

Asked: Likewise for O=C(CN1CCN(c2ccc(O)cc2)CC1)Nc1ccc(SC(F)F)cc1 ?
Given back: t

Asked: Likewise for O=c1cc(C(F)(F)F)[nH]c2c(OC(F)(F)F)cccc12 ?
Given back: f

Asked: Likewise for COc1ccc(CCNC(=O)c2coc(=O)c(Br)c2)cc1 ?
Given back: t

Asked: Likewise for Cc1ccc2sc(N(CCCN(C)C)C(=O)c3ccc(S(=O)(=O)N4CCCCCC4)cc3)nc2c1C ?
Given back: t

Asked: Likewise for N#Cc1c(/N=C/N2CCCC2)oc(-c2ccccc2)c1-c1ccccc1 ?
Given back: t

Asked: Likewise for O=C(Nc1ccc([N+](=O)[O-])cc1)Nc1ccc(OC(F)F)c(Cl)c1 ?
Given back: t

Asked: Likewise for COc1cc(CNC2CCCC2)cc(Cl)c1OCc1ccccc1Cl ?
Given back: t

Asked: Likewise for COc1ccc2nc(NC(=O)c3cccc(-c4cc5ccccc5oc4=O)c3)sc2c1 ?
Given back: t

Asked: Likewise for O=C(/C=C/c1c(F)cccc1Cl)c1ccc(O)cc1 ?
Given back: t

Asked: Likewise for CC(C)N1CCN(Cc2ccc(OC3CCCC3)cc2)CC1CCO (stereo not drawn) ?
Given back: t

Asked: Likewise for O=C(CCN1Cc2ccccc2C1)c1ccc2c(c1)OCCO2 ?
Given back: t

Asked: Likewise for O=C(O)c1ccc(C=C(c2nc3ccccc3s2)c2nc3ccccc3s2)cc1 ?
Given back: t
